Test: MTS cell viability assay
Format: cell-based, mouse
Conditions: mouse, B16F10 mouse melanoma cells; 25 µM, 48 h, B16F10
RECORDED ENDPOINT: viability at 48 h, 25 µM (%)
I only need the number, in %, no unit after it.

# input What value of viability at 48 h, 25 µM has been reported for the following molecule? `COC(=O)/C(C(=O)/C=C/c1ccc(O)cc1)=C(O)\C=C\c1ccc(O)cc1`
# output 55.5

###

Test: MTS cell viability assay
Type: cell-based, mouse
Settings: mouse, B16F10 mouse melanoma cells; 20 µM, 48 h, B16F10
Description: B16F10 mouse melanoma cells (CRL-6475™) were obtained from American Type Culture Collection (ATCC, Manassas, VA, USA) and cultured using Dulbecco’s Modified Eagle Medium (DMEM) supplemented with 10% heat-inactivated fetal bovine serum (HI-FBS) and 1% antibiotics (penicillin-streptomycin) in a humidified incubator with 95% air—5% CO2 at 37 °C. […] At this point, the absorbance of 100 μL aliquots was read at 490 nm using a microplate reader. […]
RECORDED ENDPOINT: viability at 48 h, 20 µM (%)
I only need the number, in %, no unit after it.

# input What value of viability at 48 h, 20 µM has been reported for the following molecule? `COC(=O)/C(C(=O)/C=C/c1ccc(O)cc1)=C(O)\C=C\c1ccc(O)cc1`
# output 72.2

// provenance: paper PMC8145596
